Data provenance: the DeepSol protein solubility set

assay-text: soluble on expression in E. coli; label from the status in PepcDB or PDB records
measure: soluble on expression in E. coli

{"seq-text": "MLNIQNYSASPHPGIVAERPQTPSASEHVETAVVPSTTEHRGTDIISLSQAATKIHQAQQTLQSTPPISEENNDERTLARQQLTSSLNALAKSGVSLSAEQNENLRSAFSAPTSALFSASPMAQPRTTISDAEIWDMVSQNISAIGDSYLGVYENVVAVYTDFYQAFSDILSKMGGWLLPGKDGNTVKLDVTSLKNDLNSLVNKYNQINSNTVLFPAQSGSGVKVATEAEARQWLSELNLPNSCLKSYGSGYVVTVDLTPLQKMVQDIDGLGAPGKDSKLEMDNAKYQAWQSGFKAQEENMKTTLQTLTQKYSNANSLYDNLVKVLSSTISSSLETAKSFLQGLEHHHHHH", "measure": "soluble on expression in E. coli", "measured-value": "soluble"}
{"seq-text": "MGSDKIHHHHHHMNTKVMTAIPFTIDRDWLFTHLHIKPGKPYVEDVENMIEQALTIGKPKAAYRLAYIESKGEDFVVVDGFKFTSRVLRVNLAETFKVVPYVITCGEELERWAKTFHHMFESYCADGIMEAVMHSARVAFFSQIAEEYNLGHAVNMNPGSLEDWPLKEQAPLFQLLGDVKSLIGVELKESFLMSPIKTVSGFRFSKEGSYENCQLCPREKCPGRRAPYEQNLYAEKYQLK", "measure": "soluble on expression in E. coli", "measured-value": "not soluble"}
{"seq-text": "MSEAESVVIKGGNKDKILPLEAEEKKPIKEEKNKAVILSNWIIKYAPIVYFHPDEKCFPITVEEFLECTDVMNEKNEKFCDGKEILSGSFKDALGNQKFYLKITDTSVREGNLNSAKCYVYVRKRNKGRYLDLQYFFFYGYNGPTINIHLNKNKKNYSTSNIGENYGNWEHVTVVIDSTDGSILGAIFDQHGKSCFYDIDQLEYEKGHIVVYSALSSHASYPSAGKSVTEYDSQELGVPPVSVGIVKFELHDATDKGRRWDTSLVCQLVSYNITGTEVEEPKWMAFNGRWGKPYDLTDKDISILYQISRLPAGGKVVDSLLWRFIPYSKKNINQANGIKSKDDFNIIILEHHHHHH", "measure": "soluble on expression in E. coli", "measured-value": "not soluble"}
{"seq-text": "MSDSTPKTPRGFVVHTAPVGLADDGRDDFTVLASTAPATVSAVFTRSRFAGPSVVLCREAVADGQARGVVVLARNANVATGLEGEENAREVREAVARALGLPEGEMLIASTGVIGRQYPMESIREHLKTLEWPAGEGGFDRAARAIMTTDTRPKEVRVSVGGATLVGIAKGVGMLEPDMATLLTFFATDARLDPAEQDRLFRRVMDRTFNAVSIDTDTSTSDTAVLFANGLAGEVDAGEFEEALHTAALALVKDIASDGEGAAKLIEVQVTGARDDAQAKRVGKTVVNSPLVKTAVHGCDPNWGRVAMAIGKCSDDTDIDQERVTIRFGEVEVYPPKARGDQADDALRAAVAEHLRGDEVVIGIDLAIADGAFTVYGCDLTEGYVRLNSEYTT", "measure": "soluble on expression in E. coli", "measured-value": "soluble"}
{"seq-text": "MPLTGEYEPSPSKWAADQAELMESTDGAKGTTLGGRPVVLLTTRGAKSGKIRKTPLMRVEHDGTYAIVASLGGAPKNPVWYYNVKAEPHVELRDGSATQDMVAREVTGDERATWWDRAVAAFPDYAEYQKKTDREIPVFVLEPA", "measure": "soluble on expression in E. coli", "measured-value": "not soluble"}
{"seq-text": "MEEIWLSCHALVFHTTPTQRLCVGWGELAVGRFVKMAAAPAPEMTPRLDVSKNATDPDSLTDHGFQYSRHRPVITDHKRFDRLVGFSIKQSNVELAAEAIKQAATVWCLTEKKSDKRDEDSVKFLATYLYKESLYWGKIDPRRALQRATAESWLGSQSFAPTSARTYKAVLHTAGRVLYPAEFPPANRYSNPRAKPVDPASVELIDELYGVAATLPAVHRLRLQLILDLTTQSGLRSAEVLDLRGSDVTARILDTGERIALVRVHR", "measure": "soluble on expression in E. coli", "measured-value": "not soluble"}
{"seq-text": "MGSDKIHHHHHHMDLDRIKGEIVAFVEGRKSEFAAIAEDLYLHPETGLNEVRSSALLADFLEREGFRVERGIAGLPTAFRAETGEGGPVIAFMAEMDALPVMGHACGHNVIAAAAVGAATALRSILPPDAARIVVLGTPAEEMGIGKVDMIANGAFDGVEFALMVHPSSRRYVIKHYLGLARVRFTFFGKPAHAAAYPEEGINALDGVIQTFNGISALRQQLRQDVRVHGIITEGGVAPNIIPERASAHFYVRADDLAELERAKARVLACAEGAALATGCRLQVDADPRIMAPLKVNRIFSDLYSAQLAYLDLQESENQPDKNKGSSDIGNVSQIVPTIHPHVPIGDGINIHSEAFARATVSGKGKAAVAEGATALALTAAELAARPDIREEIWREFRS", "measure": "soluble on expression in E. coli", "measured-value": "not soluble"}
{"seq-text": "MGSSHHHHHHSSGLVPRGSHMKAMNKVWVIGDASVDLVPEKQNSYLKCPGGASANVGVCVARLGGECGFIGCLGDDDAGRFLRQVFQDNGVDVTFLRLDADLTSAVLIVNLTADGERSFTYLVHPGADTYVSPQDLPPFRQYEWFYFSSIGLTDRPAREACLEGARRMREAGGYVLFDVNLRSKMWGNTDEIPELIARSAALASICKVSADELCQLSGASHWQDARYYLRDLGCDTTIISLGADGALLITAEGEFHFPAPRVDVVDTTGAGDAFVGGLLFTLSRANCWDHALLAEAISNANACGAMAVTAKGAMTALPFPDQLNTFLSSHSLAQAMTVK", "measure": "soluble on expression in E. coli", "measured-value": "soluble"}
{"seq-text": "MKAYQRYRFPSLRSVARDASARDSAALAAEAQCADIDARIEEGFRQGREDGYRDGFEHGEAEGMKQGREAGFAAGAQQARDALRSEYAGIAKTLDAMRDAFVRVQAEYLAARRTELVDVVAKVAKQVIRCELTLQPSQMAALIEETLGTMPASSDAPEVHLSPDDHERLAGLLPERARHWRLVPDARLEAGECRVLLGGNEADAGCQHRLDACVERIGEQLPGAPDVEAAAT", "measure": "soluble on expression in E. coli", "measured-value": "not soluble"}
{"seq-text": "MAHHHHHHMSSTVTGQAIPKLFPKAFHSWVGTGRIFNFLAPYEQNRVIAYLNSIYNTAPLFKWSLSIVPLYGIVSGYPPVEKIDFNSSAALCATGMVWFVYALLIQPQNSGSRSLALVNICLATVNGYNCYRSAQHKRRQAVNANRIE", "measure": "soluble on expression in E. coli", "measured-value": "not soluble"}
